experiment.notes: chemical genetic growth profiling, strain panel (AID 1159580);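 further: tested at 20 µM; growth read once vehicle control cultures reached saturation at 30 °C; 1 = growth at the plate median or of vehicle wells; lower values mean less growth of the strain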
experimental.conditions: S. cerevisiae deletion strains, growth OD, locus YBR279W, strain paf1
About 2,000 (36%) of roughly 5,500 compounds were called active. About 18% were inconclusive and are not listed. No stated cut-off is given here; in the data, active means normalized growth mostly below about 0.91 (no sharp cut-off); inconclusive means no clear call, values can overlap the other calls; inactive means mostly above about 0.92. The list shows a part of the results.
The reply should be one of these categories: TRUE for active, FALSE for inactive

Record excerpt, results attached:
| molecule | answer.label |
| --- | --- |
| Cc1ccc2c(Cl)cc(Cl)c(O)c2n1 | FALSE |
| CN1C(CC(=O)c2ccccc2)CCCC1CC(O)c1ccccc1 (configuration not stated) | FALSE |
| Nc1ncnc2c1ncn2[C@@H]1O[C@H](CO)[C@@H](O)[C@H]1O | FALSE |
| O[N+]1=CC=CCC1=S.On1ccccc1=S.[Zn] | TRUE |
| NC(=NCCC[C@H](N)C(=O)O)NC(CCC(=O)O)C(=O)O (some centres not stated) | FALSE |

Please share the test call associated with O=C(OC1Cc2c(O)cc(O)cc2OC1c1cc(O)c(O)c(O)c1-c1c(C2Oc3cc(O)cc(O)c3CC2OC(=O)c2cc(O)c(O)c(O)c2)cc(O)c(O)c1O)c1cc(O)c(O)c(O)c1 (configuration not stated) .
FALSE

Please share the test call associated with CC(=O)O[C@@H]1CC2C(C)(C)C=CC(=O)[C@]2(C)C2CC[C@@]3(C)[C@H](c4ccoc4)OC(=O)C4OC43[C@@]21C (some centres not stated) .
FALSE

Please share the test call associated with "O=[N+]([O-])c1ccc(O)c([N+](=O)[O-])c1" .
TRUE

Please share the test call associated with "O=C(O)CF" .
FALSE

Please share the test call associated with C=CC(C1=CC(=O)C(OC)=CC1=O)c1ccc(OC)cc1 (configuration not stated) .
TRUE

Please share the test call associated with Nc1ncnc2c1ncn2C1O[C@H](COP(=O)(O)O)[C@@H](O)[C@H]1O (some centres not stated) .
FALSE

Please share the test call associated with "CNC[C@@H](O)c1ccc(O)c(O)c1" .
FALSE

Please share the test call associated with C=CC(C1=CC(=O)C(OC)=CC1=O)c1ccccc1 (configuration not stated) .
TRUE

Please share the test call associated with "Nc1ccc([As](=O)(O)O)cc1" .
FALSE

Please share the test call associated with "CN[C@H](CC(=O)O)C(=O)O" .
FALSE

Please share the test call associated with COC(=O)C[C@H]1C(C)(C)C(=O)[C@@H]2CC3=C4CC(=O)O[C@@H](c5ccoc5)[C@]4(C)CCC3[C@@]1(C)C2=O (some centres not stated) .
FALSE

Please share the test call associated with C=CC(C1=CC(=O)C=CC1=O)c1ccccc1 (configuration not stated) .
FALSE

---

The following compounds are listed with their measured normalized growth values.
experiment.notes: chemical genetic growth profiling, strain panel (AID 1159580);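 further: tested at 20 µM; growth read once vehicle control cultures reached saturation at 30 °C; 1 = growth at the plate median or of vehicle wells; lower values mean less growth of the strain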
experimental.conditions: S. cerevisiae deletion strains, growth OD, locus YMR205C, strain PFK2, active compounds read low
In all, about 5,500 compounds went through this assay and about 2,000 (36%) were called active. Another 18% or so got no clear call; they are omitted. This is one part of the list.

// known answers, use as guide
| compound | normalized growth |
| --- | --- |
| C=CC(C1=CC(=O)C(OC)=CC1=O)c1ccccc1 (stereo not drawn) | 0.784 (active) |
| C=CC(C1=CC(=O)C(OC)=CC1=O)c1ccc(OC)cc1 (stereo not drawn) | 0.715 (active) |
| C=CC(C1=CC(=O)C=CC1=O)c1ccccc1 (stereo not drawn) | 0.997 (inactive) |
| COc1cc(C(=O)NCc2ccc(OCCN(C)C)cc2)cc(OC)c1OC | 0.992 (inactive) |
| CCN(CC)CCOc1ccc2c(c1)C(=O)c1cc(OCCN(CC)CC)ccc1-2 | 0.969 (inactive) |

Looking for the measured normalized growth of O=C1CCCC2C3CC(CN12)[C@@H]1CCCCN1C3 (stereo partly drawn) , can you help?
0.978 (inactive)

Looking for the measured normalized growth of "C=C[C@@H](C1=CC(=O)C(OC)=C(OC)C1=O)c1ccccc1" , can you help?
0.689 (active)

Looking for the measured normalized growth of C1CCN2CC3CC(CN4CCCCC34)C2C1 (stereo not drawn) , can you help?
1.04 (inactive)
